biological target: T1, human activated Protein C (human, UniProt P04070 43-461); assay: Biacore, Fab
T1 construct: also called human aPC; hAPC
Observed property: Kd (nM)
Give bare numbers, in nM.

Example binders with recorded Kd:
Binder	Observed property	Unit name	Assay result
R41E3 Fab (Fab, V domains shown, Human Fab (lambda), expressed in E. coli) VH: EVQLLESGGGLVQPGGSLRLSCAASGFTFNNYAMTWVRQAPGKGLEWVSGVSWNGSRTHYADSVKGRFTISRDNSKNTLYLQMNSLRAEDTAVYYCARADSSSAGRWAGSLDYWGQGTLVTVTS VL: LTQPPSASGTPGQRVTISCSGSSSNIGNNAVNWYQQLPGTAPKLLIYSNNQRPSGVPDRFSGSKSGTSASLAISGLRSEDEADYYCSSYTSSSTHVVFGGGTKLTVLG	Kd	nM	11
C26B9 Fab (Fab, V domains shown, Human Fab (lambda) from a phage library, expressed in E. coli) VH: EVQLLESGGGLVQPGGSLRLSCAASGFTFSSYGMHWVRQAPGKGLEWVSVIYSGGSTYYADSVKGRFTISRDNSKNTLYLQMNSLRAEDTAVYYCARMGRAFDIWGQGTLVTVTS VL: QSVLTQPPSASGTPGQRVTISCSGSSSNIRSNTVNWYQQLPGTAPKLLIYGNSNRPSGVPDRFSGSKSGTSASLAISGLRSEDEADYYCQSYDSSLSGDVVFGGGTKLTVLG	Kd	nM	7.9
R41C17 Fab (Fab, V domains shown, Human Fab (lambda), expressed in E. coli; also called R4117) VH: EVQLLESGGGLVQPGGSLRLSCAASGFTFSNYAMSWVRQSPGKGLEWVAVISYDGREKYYSDSVKGRFTISRDNSKNTLYLQMNSLRAEDTAVYYCARDRGRTFDYWGQGTLVTVTS VL: LTQPPSASGTPGQRVTISCTGSSSNIGAGYVVHWYQQLPGTAPKLLIYRNNHRPSGVPDRFSGSKSGTSASLAISGLRSEDEADYYCAAWDDSLNGRVFGGGTKLTVLG	Kd	nM	4.8

Next item in the queue.
Report Kd for C22J13 Fab (Fab, V domains shown, Human Fab (lambda) from a phage library, expressed in E. coli) VH: EVQLLESGGGLVQPGGSLRLSCAASGFTFSSNYMSWVRQAPGKGLEWVAVISYDGSNKYYADSVKGRFTISRDNSKNTLYLQMNSLRAEDTAMYYCALTGRSGWMRFPNWFDPWGQGTLVTVTS VL: QSVLTQPPSASGTPGQRVTISCSGSDSNIGSNAVNWYQQLPGTAPKLLIYDNNKRPSGVPDRFSGSKSGTSASLAISGLRSEDEADYYCSSYTSSNTVVFGGGTKLTVLG please. 16

Data origin: patent US20150307625A1
